target: T1, human CCL2 (MCP1) - P8A variant (human, UniProt P13500 24-99); assay: number printed beside the row of sensorgrams; the assay and the CCL2 form behind the number are not stated on the sheet (the sensorgrams are on monomeric CCL2)
T1 construct: In-house point mutant that cannot dimerise; also called monomeric human CCL2; monomeric CCL2
recorded_endpoint: Affinity relative to parent CNTO888 (X)
Give just the number in X; leave the unit off.

binder | Affinity relative to parent CNTO888, X
CNTO888H0634/CNTO888L0616 (antibody, V domains shown, also called modified CNTO888 variant (VH H0634 / VL L0616)) VH: QVQLVQSGAEVKKPGSSVKVSCKASGGTFSHYGTSWVRQAPGQGLEWMGGIIHIFGTANYAQKFQGRVTITADESTSTAYMELSSLRSEDTAVYYCARYDAHYGELDFWGQGTLVTVSS VL: EIVLTQSPATLSLSPGERATLSCRASQHVSDAYLAWYQQKPGQAPRLLIYDASDRAEGVPARFSGSGSGTDFTLTISSLEPEDFAVYYCHQYIHLHSFTFGQGTKVEIK | 10
CNTO888H0695/CNTO888L0616 (antibody, V domains shown, also called modified CNTO888 variant (VH H0695 / VL L0616)) VH: QVQLVQSGAEVKKPGSSVKVSCKASGGTFSHYGISWVRQAPGQGLEWMGGVIPIFHTANYAQKFQGRVTITADESTSTAYMELSSLRSEDTAVYYCARYDAHYGELDFWGQGTLVTVSS VL: EIVLTQSPATLSLSPGERATLSCRASQHVSDAYLAWYQQKPGQAPRLLIYDASDRAEGVPARFSGSGSGTDFTLTISSLEPEDFAVYYCHQYIHLHSFTFGQGTKVEIK | 1

Okay, now this binder:
May I ask what Affinity relative to parent CNTO888 has been recorded for CNTO888H0635/CNTO888L0616 (antibody, V domains shown, also called modified CNTO888 variant (VH H0635 / VL L0616)) VH: QVQLVQSGAEVKKPGSSVKVSCKASGGTFSHYGISWVRQAPGQGLEWMGGHIHIFGTANYAQKFQGRVTITADESTSTAYMELSSLRSEDTAVYYCARYDAHYGELDFWGQGTLVTVSS VL: EIVLTQSPATLSLSPGERATLSCRASQHVSDAYLAWYQQKPGQAPRLLIYDASDRAEGVPARFSGSGSGTDFTLTISSLEPEDFAVYYCHQYIHLHSFTFGQGTKVEIK ?
3

The measurements presented in this section are drawn from patent US20240360208A1.
